Origin of measurements: the supplement of paper PMC9446081

system: DNA gyrase; experiment: relative enzymatic activity vs untreated control (fraction); higher = less inhibition; conditions: 100 µM; incubation time: 2 h at 37 C

{"compound": "COc1cc(Cc2cnc(N)nc2N)cc(OC)c1OC", "system": "DNA gyrase", "relative enzymatic activity": 0.772}
{"compound": "O=c1[nH]c(=O)n([C@H]2C[C@H](O)[C@@H](CO)O2)cc1F", "system": "DNA gyrase", "relative enzymatic activity": 0.574}
{"compound": "CCCN1C[C@H](C)[C@@H](O)[C@](C)(O)[C@@H](CC)OC(=O)[C@H](C)[C@@H](O[C@H]2C[C@@](C)(OC)[C@@H](O)[C@H](C)O2)[C@H](C)[C@@H](O[C@@H]2O[C@H](C)C[C@H](N(C)C)[C@H]2O)[C@](C)(O)C[C@H]1C", "system": "DNA gyrase", "relative enzymatic activity": 0.764}
{"compound": "CC1CN(c2c(F)c(N)c3c(=O)c(C(=O)O)cn(C4CC4)c3c2F)CC(C)N1 (centres undefined)", "system": "DNA gyrase", "relative enzymatic activity": 0.00841}

====

biological target: MurF (UniProt P11880); assay: relative enzymatic activity vs untreated control (fraction); higher = less inhibition; conditions: 100 µM; incubation time: 2 h at 37 C
Sequence (P11880 whole entry): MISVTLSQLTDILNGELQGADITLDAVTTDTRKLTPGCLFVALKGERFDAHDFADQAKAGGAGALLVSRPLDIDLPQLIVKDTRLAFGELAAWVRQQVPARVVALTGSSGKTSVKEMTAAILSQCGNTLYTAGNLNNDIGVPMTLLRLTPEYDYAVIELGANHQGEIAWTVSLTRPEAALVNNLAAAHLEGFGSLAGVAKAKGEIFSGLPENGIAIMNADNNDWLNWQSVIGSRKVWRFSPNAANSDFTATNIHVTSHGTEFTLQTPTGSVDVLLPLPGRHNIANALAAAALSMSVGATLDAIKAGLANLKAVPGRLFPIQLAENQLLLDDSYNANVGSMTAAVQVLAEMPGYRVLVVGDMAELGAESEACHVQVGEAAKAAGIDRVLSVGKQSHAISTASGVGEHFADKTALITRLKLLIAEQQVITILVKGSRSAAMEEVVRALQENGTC
Below is a list of entries, each paired with its recorded relative enzymatic activity value.
measured-endpoint: relative enzymatic activity

{"compound": "Oc1c(Cl)cc(Cl)c(Cl)c1Cc1c(O)c(Cl)cc(Cl)c1Cl", "value-measured": 0.446}
{"compound": "CC1CCc2c(N3CCC(O)CC3)c(F)cc3c(=O)c(C(=O)O)cn1c23 (configuration not stated)", "value-measured": 1.1}
{"compound": "CO[C@@]12[C@@H]3N[C@@H]3CN1C1=C(C(=O)C(N)=C(C)C1=O)[C@@H]2COC(N)=O", "value-measured": 0.942}
{"compound": "CON=C(C(=O)NC1C(=O)N2C(C(=O)[O-])=C(COC(C)=O)CSC12)c1csc(N)n1.[Na+] (configuration not stated)", "value-measured": 0.939}
{"compound": "NC[C@H]1O[C@H](O[C@H]2[C@H](O)[C@@H](O[C@H]3O[C@H](CO)[C@@H](O)[C@H](N)[C@H]3O)[C@H](N)C[C@@H]2N)[C@H](N)[C@@H](O)[C@@H]1O", "value-measured": 0.975}
{"compound": "CC[C@H]1OC(=O)[C@H](C)[C@@H](O[C@H]2C[C@@](C)(OC)[C@@H](O)[C@H](C)O2)[C@H](C)[C@@H](O[C@@H]2O[C@H](C)C[C@H](N(C)C)[C@H]2O)[C@](C)(O)C[C@@H](C)C(=O)[C@H](C)[C@@H](O)[C@]1(C)O", "value-measured": 0.939}
{"compound": "NC(C(=O)NC1C(=O)N2C(C(=O)O)=C(Cl)CSC12)c1ccccc1 (configuration not stated)", "value-measured": 0.945}

====

target: MurA (UniProt Q3YX52); test: relative enzymatic activity vs untreated control (fraction); higher = less inhibition; conditions: 100 µM; incubation time: 2 h at 37 C
Sequence (Q3YX52 whole entry): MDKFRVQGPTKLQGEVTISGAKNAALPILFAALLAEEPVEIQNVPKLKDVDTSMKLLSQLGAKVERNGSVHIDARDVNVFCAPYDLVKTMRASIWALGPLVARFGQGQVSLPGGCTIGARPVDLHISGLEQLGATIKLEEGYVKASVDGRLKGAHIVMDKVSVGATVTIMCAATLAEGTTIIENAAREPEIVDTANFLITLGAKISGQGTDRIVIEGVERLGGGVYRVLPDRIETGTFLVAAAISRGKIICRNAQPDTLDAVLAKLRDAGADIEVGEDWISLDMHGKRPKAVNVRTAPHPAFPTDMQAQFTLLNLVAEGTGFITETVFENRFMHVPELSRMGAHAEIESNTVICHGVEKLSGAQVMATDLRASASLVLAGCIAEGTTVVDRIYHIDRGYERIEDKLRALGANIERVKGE
Kind request: treat 0.1 as inclusive, so relative enzymatic activity at 0.1 or higher is 1, anything lower is -1.

{"compound": "NCCONC(=O)[C@@H]1CC[C@@H]2CN1C(=O)N2OS(=O)(=O)O", "label": 1}
{"compound": "C=CC1=C(C(=O)O)N2C(=O)C(NC(=O)C(=NO)c3csc(N)n3)C2SC1 (configuration not stated)", "label": 1}
{"compound": "CC(C)(ON=C(C(=O)NC1C(=O)N2C(C(=O)[O-])=C(C[n+]3ccccc3)CSC12)c1csc(N)n1)C(=O)O (configuration not stated)", "label": -1}
{"compound": "CC[C@H]1OC(=O)[C@H](C)[C@@H](O[C@H]2C[C@@](C)(OC)[C@@H](O)[C@H](C)O2)[C@H](C)[C@@H](O[C@@H]2O[C@H](C)C[C@H](N(C)C)[C@H]2O)[C@](C)(O)C[C@@H](C)CN(C)[C@H](C)[C@@H](O)[C@]1(C)O", "label": 1}
{"compound": "CC(C)(O/N=C(\\C(=O)N[C@@H]1C(=O)N2C(C(=O)O)=C(C[N+]3(CCNC(=O)c4ccc(O)c(O)c4Cl)CCCC3)CS[C@H]12)c1csc(N)n1)C(=O)O", "label": -1}
{"compound": "O=C(NO)c1cn(-c2cccc(C(=O)N3CCC4(CC3)C(=O)NCN4c3ccccc3)c2)nn1", "label": 1}
{"compound": "O=c1[nH]c(=O)n([C@@H]2C[C@@H](O)[C@@H](CO)O2)cc1F", "label": 1}
